# System: J2 IgG LC Y31F
# assaySummary: BLI
# conditionNotes: 25 mM Tris-HCl pH 7.5, 2 mM MgCl2, 100 mM KCl (FP, 21 C) or 100-400 mM KCl (BLI, IgG on Protein A, 25 C)
endpointLabel: pKd
Please express pKd as -log10 of the molar concentration.

QUERY: // map GUUGUAAAGAAGGUCAAUAU / AUAUUGACCUUCUUUACAAC [20-bp dsRNA] to recorded pKd (system: J2 IgG LC Y31F)
RESULT: 6.44

###

# System: J2 IgG HC Y54A
# assaySummary: BLI
# conditionNotes: 25 mM Tris-HCl pH 7.5, 2 mM MgCl2, 100 mM KCl (FP, 21 C) or 100-400 mM KCl (BLI, IgG on Protein A, 25 C)
endpointLabel: pKd
The meaning of pKd here: minus log10 of the concentration in molar units.

QUERY: Which pKd is listed for GUUGUAAAGAAGGUCAAUAU / AUAUUGACCUUCUUUACAAC [20-bp dsRNA] ?
RESULT: 6.52

FYI, the data here is from paper doi:10.1101/2025.05.09.649859.
